Values compiled from paper PMC13368180.

Target: SARS-CoV-2 spike RBD (SARS-CoV-2, UniProt P0DTC2 319-541)
Experiment: EMSA
Conditions: protein: commercial
Reported pKd values for the following binders.
Keep in mind that pKd stands for -log10 of concentration in molar terms.

Known pKd results, listed for orientation:
[
  {
    "Binder": "TaG34C (structured_RNA) RNA: GGCGACAUUUGUAAUUCCUGGACCGAUACUUCCCUCAGGACAGAGGUUGCCA",
    "pKd": 4.47
  },
  {
    "Binder": "Ta (RBD-PB6-Ta) (structured_RNA) RNA: GGCGACAUUUGUAAUUCCUGGACCGAUACUUCCGUCAGGACAGAGGUUGCCA",
    "pKd": 3.96
  },
  {
    "Binder": "TaG34U (structured_RNA) RNA: GGCGACAUUUGUAAUUCCUGGACCGAUACUUCCUUCAGGACAGAGGUUGCCA",
    "pKd": 4.26
  }
]

Kindly consider the entry below.
[Q] GET /values?readout=pKd&item= TaC23U (structured_RNA) RNA: GGCGACAUUUGUAAUUCCUGGAUCGAUACUUCCGUCAGGACAGAGGUUGCCA
[A] 4.31
